Data provenance is patent US20240059691A1.

Reported IC50 by item:
EXPERIMENTAL TARGET: Plasma Kallikrein (Homo sapiens (Human), UniProt P03952)
Sequence (P03952 391-638): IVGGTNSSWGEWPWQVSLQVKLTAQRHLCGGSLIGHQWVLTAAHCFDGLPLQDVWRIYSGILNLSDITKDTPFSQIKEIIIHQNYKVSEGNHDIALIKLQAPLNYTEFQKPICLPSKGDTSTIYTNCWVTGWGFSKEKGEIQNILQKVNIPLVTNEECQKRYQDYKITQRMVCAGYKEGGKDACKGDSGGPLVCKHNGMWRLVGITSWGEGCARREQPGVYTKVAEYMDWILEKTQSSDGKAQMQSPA
Sequence (P03952 20-390 partner): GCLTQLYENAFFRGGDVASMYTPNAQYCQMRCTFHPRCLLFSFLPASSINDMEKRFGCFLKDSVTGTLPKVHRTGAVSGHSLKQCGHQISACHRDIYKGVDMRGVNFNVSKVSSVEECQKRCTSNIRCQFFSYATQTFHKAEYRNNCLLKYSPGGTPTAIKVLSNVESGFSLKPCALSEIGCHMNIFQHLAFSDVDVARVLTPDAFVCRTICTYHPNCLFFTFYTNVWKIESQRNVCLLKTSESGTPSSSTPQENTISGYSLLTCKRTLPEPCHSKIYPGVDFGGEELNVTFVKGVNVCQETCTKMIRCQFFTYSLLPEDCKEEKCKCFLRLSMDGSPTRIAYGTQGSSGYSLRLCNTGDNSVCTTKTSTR
ASSAY NAME: Determination of related protease inhibition: Plasma Kallikrein (fluorogenic substrate at Km)
MEASUREMENT SETUP: 25° C., read-out: IC50 (human PKal)

| COMPOUND | EXPERIMENTAL TARGET | IC50 |
| --- | --- | --- |
| CN1CCC(COc2cc(CNc3ccc4c(N)nccc4c3)ccn2)CC1 | Plasma Kallikrein (Homo sapiens (Human), UniProt P03952) | 3 to 10 µM |
| Nc1ncc(Cl)c2cc(NCc3ccc(OC4CCn5ccnc5C4)nc3)ccc12 (centres unmarked) | Plasma Kallikrein (Homo sapiens (Human), UniProt P03952) | > 40 µM |
| Nc1nccc2c(NCc3ccnc(N4CCn5ccnc5C4)c3)cccc12 | Plasma Kallikrein (Homo sapiens (Human), UniProt P03952) | > 40 µM |
| CN1CCN(CCc2ccc(CNc3cccc4c(N)nccc34)c(F)c2)CC1 | Plasma Kallikrein (Homo sapiens (Human), UniProt P03952) | > 40 µM |
| CN1CC2C[C@@H]1C[C@H]2OCc1ccc(CNc2ccc3c(N)nccc3c2)c(F)c1 (single isomer, unassigned) | Plasma Kallikrein (Homo sapiens (Human), UniProt P03952) | 3 to 10 µM |
| Nc1ncc(Cl)c2cc(NCc3ccc(N4CCn5nccc5C4)nc3)ccc12 | Plasma Kallikrein (Homo sapiens (Human), UniProt P03952) | > 40 µM |
| Cc1cnc2n1CCC(COc1cc(CNc3cccc4c(N)nccc34)ccn1)C2 (single isomer, unassigned) [Example 4444] | Plasma Kallikrein (Homo sapiens (Human), UniProt P03952) | 3 to 10 µM |
| Cc1cc(NCc2ccc(NCC3CCN(C)CC3)nc2)cc2ccncc12 | Plasma Kallikrein (Homo sapiens (Human), UniProt P03952) | 10 to 40 µM |

###

EXPERIMENTAL TARGET: Plasma Kallikrein (Homo sapiens (Human), UniProt P03952)
ASSAY NAME: Determination of related protease inhibition: Plasma Kallikrein (fluorogenic substrate at Km)
MEASUREMENT SETUP: 25° C., read-out: IC50 (human PKal)

| COMPOUND | EXPERIMENTAL TARGET | IC50 |
| --- | --- | --- |
| Cc1cn2c(n1)CC(COc1cc(CNc3cccc4c(N)nccc34)ccn1)CC2 (single isomer, unassigned) [Example 4447] | Plasma Kallikrein (Homo sapiens (Human), UniProt P03952) | 3 to 10 µM |
| CN1CCC(CNc2ccc(CNc3cc(C(=O)O)nc4[nH]ccc34)cn2)CC1 [Example 1263] | Plasma Kallikrein (Homo sapiens (Human), UniProt P03952) | > 40 µM |
| Cc1cc(NCc2ccnc(OCC3CCN(C)CC3)c2)cc2ccncc12 [Example 4464] | Plasma Kallikrein (Homo sapiens (Human), UniProt P03952) | > 20 µM |
| CN1CCC(CNc2ccc(CNc3cncc4[nH]ccc34)cn2)CC1 [Example 1213] | Plasma Kallikrein (Homo sapiens (Human), UniProt P03952) | 10 to 40 µM |
| CC1c2nnc(C(F)(F)F)n2CCN1c1ccc(CNc2cccc3c(N)nccc23)cn1 (single isomer, unassigned) [Example 1295] | Plasma Kallikrein (Homo sapiens (Human), UniProt P03952) | 10 to 40 µM |
| CN1CCC(CNc2cc(CNc3ccc4c(N)ncc(Cl)c4c3)ccn2)CC1 [Example 4285] | Plasma Kallikrein (Homo sapiens (Human), UniProt P03952) | > 40 µM |
| CN1CCN(CCc2ccc(CNc3ccc4c(N)nccc4c3)c(F)c2)CC1 [Example 2181] | Plasma Kallikrein (Homo sapiens (Human), UniProt P03952) | 10 to 40 µM |
| Nc1nccc2c(NCc3ccc(N4CC5(CC(O)c6nccn65)C4)cc3)cccc12 (centres unmarked) [Example 2253] | Plasma Kallikrein (Homo sapiens (Human), UniProt P03952) | > 40 µM |
| Nc1nccc2cc(NCc3ccnc(OCC4CCn5ccnc5C4)c3)ccc12 (single isomer, unassigned) [Example 4267] | Plasma Kallikrein (Homo sapiens (Human), UniProt P03952) | 3 to 10 µM |
| CN1CCC(CNc2ccc(CNc3cnc4cccnn34)cn2)CC1 [Example 1187] | Plasma Kallikrein (Homo sapiens (Human), UniProt P03952) | > 100 µM |
| CN1CC(C2CN(c3cc(CNc4ccc5c(N)nccc5c4)ccn3)C2)C1 [Example 5435] | Plasma Kallikrein (Homo sapiens (Human), UniProt P03952) | 10 to 40 µM |
| CN1CC2CCC(C1)C2COc1cc(CNc2cccc3c(N)nccc23)ccn1 (centres unmarked) [Example 4278] | Plasma Kallikrein (Homo sapiens (Human), UniProt P03952) | > 40 µM |
| Nc1nccc2c(NCc3cnc(OCC4CCn5ccnc5C4)nc3)cccc12 (centres unmarked) [Example 1042] | Plasma Kallikrein (Homo sapiens (Human), UniProt P03952) | > 4 µM |
| CN1CCC(COc2ncc(CNc3ccc4c(N)nccc4c3)cn2)CC1 [Example 1013] | Plasma Kallikrein (Homo sapiens (Human), UniProt P03952) | 3 to 10 µM |
| CN1CCC(CNc2ccc(CNc3ccnc4c3CC(C)(C)N4)cn2)CC1 [Example 1257] | Plasma Kallikrein (Homo sapiens (Human), UniProt P03952) | > 40 µM |
| CC1c2nnc(C(F)(F)F)n2CCN1c1ccc(CNc2cccc3c(N)nccc23)cn1 (single isomer, unassigned) [Example 1294] | Plasma Kallikrein (Homo sapiens (Human), UniProt P03952) | > 40 µM |
| CCN1CCC(COc2ccc(CNc3ccc4c(N)nccc4c3)cn2)CC1 [Example 1010] | Plasma Kallikrein (Homo sapiens (Human), UniProt P03952) | 3 to 10 µM |

###

EXPERIMENTAL TARGET: Trypsin
ASSAY NAME: Determination of related protease inhibition: Trypsin (fluorogenic substrate at Km)
MEASUREMENT SETUP: 25° C.
pIC50: −log10 of the molar value.
MEASURED PROPERTY: pIC50

| MOLECULE | RESULT |
| --- | --- |
| CC(C)N1C[C@@H]2C[C@H]1CN2CCc1ccc(CNc2cccc3c(N)nccc23)c(F)c1 (stereo in doubt) | < 4.40 |
| Nc1ncc(Cl)c2cc(NCc3ccnc(N4CCn5ccnc5C4)c3)ccc12 | < 4.40 |
| CN1CCC(COc2cc(CNc3ccc4cnccc4c3)ccn2)CC1 | < 4.40 |
| Nc1ncc(Cl)c2cc(NCc3ccnc(OCC4CCn5ccnc5C4)c3)ccc12 (single isomer, unassigned) | < 4.40 |
| CN1CCC(COc2cc(CNc3ccc4c(N)ncc(Cl)c4c3)ccn2)CC1 | < 4.40 |
| Nc1ncc(F)c2c(NCc3ccnc(OCC4CCn5ccnc5C4)c3)cccc12 (stereo not shown) | < 4.40 |
| Cc1cn2c(n1)CC(COc1cc(CNc3cccc4c(N)nccc34)ccn1)CC2 (single isomer, unassigned) | 4.40 to 5.00 |
| Nc1nccc2c(NCc3ccc(N4CCn5ccnc5C4)nc3)cccc12 | < 4.40 |
| CN1CCC(Oc2ccc(CNc3cccc4c(N)nccc34)cc2)CC1 | < 4.40 |
| CN1CCC(CNc2ccc(CNc3ccnc4[nH]ccc34)cn2)CC1 | < 4.40 |
| CN1CCC(Oc2ccc(CNc3ccc4c(N)nccc4c3)cn2)CC1 | 4.40 to 5.00 |
| CN1CCC(COc2cc(CNc3cc4ccnc(N)c4cn3)ccn2)CC1 | < 4.40 |
| CN1CCC(COc2cc(CNc3cccc4[nH]nc(Cl)c34)ccn2)CC1 | < 4.40 |

###

ASSAY NAME: Pharmacokinetics following a single intravenous dose and a single oral dose in male Sprague-Dawley rats (oral bioavailability, half-life)
Assay type: in vivo
MEASUREMENT SETUP: rat, plasma, 10% DMSO/10% Cremophor EL/80% SWFI

| COMPOUND | half-life (h) |
| --- | --- |
| Cc1cc(N2CCn3c(nnc3C(F)(F)F)C2)ncc1CNc1cccc2c(N)nccc12 | 2.34 |
| Nc1nccc2c(NCc3ccc(N4CCn5c(nnc5C(F)F)C4)nc3)cccc12 | 2.52 |
| CN1CCC(OCc2ccc(CNc3ccc4c(N)nccc4c3)c(F)c2)CC1 | 9.02 |
| FC(F)c1nnc2n1CCN(c1ccc(CNc3ccnc4[nH]c(Cl)cc34)cn1)C2 | 1.35 |
| CC(C)N1CCC(COc2cc(CNc3cccc4c(N)nccc34)ccn2)CC1 | 10.1 |
| Cc1cc(N2CCn3c(nnc3C(F)(F)F)C2C)ncc1CNc1cccc2c(N)nccc12 (single isomer, unassigned) | 4.04 |

###

Below are IC50 values measured for Human Factor XIIa (Homo sapiens (Human), UniProt P00748).

| COMPOUND | IC50 |
| --- | --- |
| Cc1cc(N2CCn3c(nnc3C(F)(F)F)C2C)ncc1CNc1cccc2c(N)nccc12 (single isomer, unassigned) [Example 1305] | 10 to 100 nM |
| Cc1cnc2n1CCC(COc1cc(CNc3cccc4c(N)nccc34)ccn1)C2 (single isomer, unassigned) | 100 to 300 nM |
| Cn1ccnc1CC(=O)NCc1ccc(CNc2cccc3c(N)nccc23)c(F)c1 | 10000 to 40000 nM |
| Cc1cn2c(n1)CC(COc1cc(CNc3ccc4c(N)ncc(Cl)c4c3)ccn1)CC2 (stereo not drawn) | 100 to 300 nM |
| Nc1nccc2cc(NCc3ccc(OCC4CCNCC4)nc3)ccc12 | 100 to 300 nM |
| Nc1nccc2c(NCc3ccc(N4CCn5nccc5C4)nc3)cccc12 | 10000 to 40000 nM |
| CN(Cc1ccc(N2CCn3c(nnc3C(F)(F)F)C2)nc1)c1cccc2c(N)nccc12 | 3000 to 10000 nM |
| Cc1cc(N2CCn3c(nnc3C(F)(F)F)C2)ncc1CNc1ccnc2c1CCN2 | 10000 to 40000 nM |
| Nc1ncc(Cl)c2cc(NCc3ccc(NCC4CCn5ccnc5C4)nc3)ccc12 (stereo not drawn) | 100 to 300 nM |
| Nc1nccc2c(NCc3ccnc(OCC4CCn5ccnc5C4)c3)cccc12 (single isomer, unassigned) [Example 4431] | 100 to 300 nM |
| Nc1ncc(F)c2c(NCc3ccnc(OCC4CCn5ccnc5C4)c3)cccc12 (stereo not drawn) | 3000 to 10000 nM |
| CN1CCC(CNc2ccc(CNc3cc(C#N)cc4[nH]ccc34)cn2)CC1 | 10000 to 40000 nM |
| CN1CCC(OCc2ccc(CNc3ccc4c(N)nccc4c3)cc2)CC1 | 100 to 300 nM |
| Nc1nccc2cc(NCc3ccnc(-c4cccc(CN5CCCC5)c4)c3)ccc12 | 100 to 300 nM |
| CC1c2nnc(C(F)(F)F)n2CCN1c1cnc(CNc2cccc3c(N)nccc23)c(F)c1 (stereo not drawn) | 10 to 100 nM |
| Nc1nccc2c(NS(=O)(=O)c3ccc(N4CCn5c(nnc5C(F)(F)F)C4)nc3)cccc12 | 300 to 1000 nM |
| CC1CN(c2ccc(CNc3cccc4c(N)nccc34)cn2)Cc2nnc(C(F)(F)F)n21 (stereo not drawn) [Example 1287] | 1000 to 3000 nM |
| CN1CCC(COc2cc(CNc3cccc4c(N)ncc(F)c34)ccn2)CC1 | 3000 to 10000 nM |
| CN1CC(OCc2ccc(CNc3cccc4c(N)nccc34)c(F)c2)CCC1=O (stereo not drawn) | 1000 to 3000 nM |
| CN1CCC(CNc2ccc(CNc3ccc4cccnc4c3)cn2)CC1 | 10000 to 40000 nM |
| CN1CC2C[C@@H]1C[C@H]2OCc1ccc(CNc2ccc3c(N)nccc3c2)c(F)c1 (single isomer, unassigned) | 10 to 100 nM |
| CN1CCC(CNc2ccc(CNc3cc(Cl)cc4[nH]ccc34)cn2)CC1 | 10000 to 40000 nM |
| CN1CCN(CCc2ccc(CNc3ccc4c(N)ncc(Cl)c4c3)c(F)c2)CC1 | 3000 to 10000 nM |
| COc1nnc2n1CCN(c1ccc(CNc3cccc4c(N)nccc34)cn1)C2 | 1000 to 3000 nM |
| CN1[C@@H]2COC[C@H]1CC(OCc1ccc(CNc3cccc4c(N)nccc34)c(F)c1)C2 (stereo partly drawn) | 100 to 300 nM |
| CN1CCC(COc2ncc(CNc3ccc4c(N)nccc4c3)cn2)CC1 | 100 to 300 nM |
| Nc1ncc(Cl)c2cc(NCc3ccnc(NCC4CCn5ccnc5C4)c3)ccc12 (stereo not drawn) | 100 to 300 nM |
| CC1Cn2c(nnc2C(F)(F)F)CN1c1ccc(CNc2cccc3c(N)nccc23)cn1 (stereo not drawn) | 10 to 100 nM |
| Cc1cc2c(NCc3ccc(NCC4CCN(C)CC4)nc3)ccnc2[nH]1 | 100 to 300 nM |
| CN1CCC(OCc2ccc(CNc3ccc4c(N)nccc4c3)cc2)C(F)(F)C1 (stereo not drawn) | 1000 to 3000 nM |
| Nc1nccc2c(NCc3ccc(N4CCn5c(nnc5C(F)(F)F)C4)cc3)cccc12 | 100 to 300 nM |
| COCC1c2nnc(C(F)(F)F)n2CCN1c1cc(C)c(CNc2cccc3c(N)nccc23)cn1 (single isomer, unassigned) | 10 to 100 nM |
| Nc1nccc2c(NCc3ccc(N4CCn5c(nnc5C(F)F)C4)nc3)cccc12 | 300 to 1000 nM |
